Details: in isobutanol, 323.15 K
Quantity measured: solubility (mole fraction)

> print(dat)
                sample.smiles  measured.result
1  CCCOC(=O)c1cc(O)c(O)c(O)c1            0.319

----------
Details: in isobutanol, 328.15 K
Quantity measured: solubility (mole fraction)

> print(dat)
                sample.smiles           quantity.measured  measured.result
1  CCCOC(=O)c1cc(O)c(O)c(O)c1  solubility (mole fraction)            0.331

----------
Conditions: in ethanol, 313.15 K
Quantity measured: solubility (mole fraction)

> print(dat)
                sample.smiles           quantity.measured  measured.result
1  CCCOC(=O)c1cc(O)c(O)c(O)c1  solubility (mole fraction)            0.266

----------
Details: in n-propanol, 308.15 K
Quantity measured: solubility (mole fraction)

> print(dat)
                sample.smiles           quantity.measured  measured.result
1  CCCOC(=O)c1cc(O)c(O)c(O)c1  solubility (mole fraction)            0.321

----------
Conditions: in isopropanol, 333.15 K
Quantity measured: solubility (mole fraction)

> print(dat)
                sample.smiles           quantity.measured  measured.result
1  CCCOC(=O)c1cc(O)c(O)c(O)c1  solubility (mole fraction)            0.409

----------
Settings: in methanol, 328.15 K
Quantity measured: solubility (mole fraction)

> print(dat)
                sample.smiles           quantity.measured  measured.result
1  CCCOC(=O)c1cc(O)c(O)c(O)c1  solubility (mole fraction)            0.351

----------
Settings: in ethyl acetate, 318.15 K
Quantity measured: solubility (mole fraction)

> print(dat)
                sample.smiles  measured.result
1  CCCOC(=O)c1cc(O)c(O)c(O)c1            0.314

----------
Conditions: in ethyl acetate, 293.15 K
Quantity measured: solubility (mole fraction)

> print(dat)
                sample.smiles  measured.result
1  CCCOC(=O)c1cc(O)c(O)c(O)c1            0.222
